Reported EC50 values are given for each entry in this list.
Tested on: Wild type pNL4-3
Assay: Antiviral activity (EC50), deCIPhR cell system, beta-galactosidase indicator cell readout
Type: cell-based, HIV-1
Conditions: HIV-1 wild type pNL4-3; cells per table title (deCIPhR, CEMA, CEM-T4), row has no cell mark, presumably deCIPhR; read-out: EC50
Measurement Name: EC50

Molecule | Measurement Name | Reading
Cc1cn([C@H]2C[C@H](F)[C@@H](COP(=O)(O)O)O2)c(=O)[nH]c1=O [FLT MP, reference compound] | EC50 | 0.01 µM
Cc1cn([C@H]2C[C@H](N=[N+]=[N-])[C@@H](COP(=O)(O)O)O2)c(=O)[nH]c1=O [AZTM P, reference compound] | EC50 | 0.063 µM

====

Tested on: NNRTI (RTMDR) 5 resistant
Experiment: microbe, parasite or virus in culture
Type: cell-based, HIV-1
Settings: Human immunodeficiency virus 1
pEC50: −log10 of the molar value.
Measurement Name: pEC50

Compound | Reading
CCCCCCCCCCCCCC(=O)OC[C@H]1O[C@@H](n2cc(C)c(=S)[nH]c2=O)C[C@@H]1F [WA- 18] | 7.35
COCCCCCCCCCCCC(=O)OC[C@H]1O[C@@H](n2cc(C)c(=S)[nH]c2=O)C[C@@H]1F [WA2 1] | 6.26
CCSCCCCCCCCCCC(=O)OC[C@H]1O[C@@H](n2cc(C)c(=S)[nH]c2=O)C[C@@H]1F [WA-2 3] | 6.32
Cc1cn([C@H]2C[C@H](F)[C@@H](COC(=O)CCCCCCCCCCCN=[N+]=[N-])O2)c(=O)[nH]c1=S [WA- 2 0] | 7.00

Data credit: patent EP2402356A2
